# experimental-details: Clinical pharmacokinetics of carmegliptin (plasma and urine) alone or with verapamil
# Assay type: in vivo, human
# condition-summary: male, human, plasma, oral, carmegliptin 150 mg + acute verapamil 80 mg t.i.d., day 10; geometric mean (CV%)
readout-type: Cmax (ng/mL)
Respond numerically; units are ng/mL and should not be typed.

What measured Cmax goes with `COc1cc2c(cc1OC)[C@@H]1C[C@H](N)[C@@H](N3C[C@@H](CF)CC3=O)CN1CC2` ?
505

* * *

# experimental-details: Clinical pharmacokinetics of carmegliptin (plasma and urine) alone or with verapamil
# Type: in vivo, human
# condition-summary: male, human, plasma, oral, carmegliptin 150 mg + chronic verapamil 80 mg t.i.d., day 15; geometric mean (CV%)
readout-type: Cmax (ng/mL)
Express your answer in ng/mL, writing the number without its unit.

If you can, please state the reported Cmax value of `COc1cc2c(cc1OC)[C@@H]1C[C@H](N)[C@@H](N3C[C@@H](CF)CC3=O)CN1CC2` .
522
